Target: T1, Human MuSK (R&D Systems, cat. 10189-MK, histidine tag) (human, UniProt O15146 24-495)
T1 construct: Bought protein; also called human monomeric MuSK-6xhis; not shown: histidine tag (6xhis)
T1 sequence: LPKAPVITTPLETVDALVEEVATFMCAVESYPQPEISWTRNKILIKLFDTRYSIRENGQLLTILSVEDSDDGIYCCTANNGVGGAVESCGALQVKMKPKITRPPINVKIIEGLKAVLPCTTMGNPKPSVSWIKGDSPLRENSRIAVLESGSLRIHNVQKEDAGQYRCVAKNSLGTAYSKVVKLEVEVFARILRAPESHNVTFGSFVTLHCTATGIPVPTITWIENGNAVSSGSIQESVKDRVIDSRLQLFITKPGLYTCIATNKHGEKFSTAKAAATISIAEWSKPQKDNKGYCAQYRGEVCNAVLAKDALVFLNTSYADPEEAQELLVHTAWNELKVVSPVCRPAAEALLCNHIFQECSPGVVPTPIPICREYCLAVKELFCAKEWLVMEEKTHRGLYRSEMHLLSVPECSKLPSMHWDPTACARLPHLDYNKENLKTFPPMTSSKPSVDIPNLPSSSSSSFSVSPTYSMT
Test: SPR (Biacore), antibody captured on anti-hFc chip; 0.625 nM; dissociation pH 5.5
Attribute: koff
Dear colleague, please return just the value in s⁻¹, with no unit written.

binder	value_observed
3F6c (antibody, human IgG1, kappa, L234A L235A, V domains shown) VH: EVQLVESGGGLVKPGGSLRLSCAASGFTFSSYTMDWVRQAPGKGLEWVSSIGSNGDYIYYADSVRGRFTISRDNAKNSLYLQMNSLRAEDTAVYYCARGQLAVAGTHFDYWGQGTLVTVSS VL: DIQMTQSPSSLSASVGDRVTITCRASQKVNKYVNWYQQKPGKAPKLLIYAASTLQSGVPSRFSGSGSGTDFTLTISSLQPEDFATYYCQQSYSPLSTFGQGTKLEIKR	0.00014
3D9b (antibody, human IgG1, kappa, L234A L235A, V domains shown) VH: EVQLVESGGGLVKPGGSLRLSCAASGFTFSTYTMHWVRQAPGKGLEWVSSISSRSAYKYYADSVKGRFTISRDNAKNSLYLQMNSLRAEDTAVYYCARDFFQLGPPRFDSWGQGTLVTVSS VL: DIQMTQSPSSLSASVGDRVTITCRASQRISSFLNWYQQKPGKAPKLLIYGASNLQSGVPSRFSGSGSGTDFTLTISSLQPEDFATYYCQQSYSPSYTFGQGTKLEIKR	4e-05

QUERY: Fill in the blank: the reported koff of 3D10a (antibody, human IgG1, kappa, L234A L235A, V domains shown) VH: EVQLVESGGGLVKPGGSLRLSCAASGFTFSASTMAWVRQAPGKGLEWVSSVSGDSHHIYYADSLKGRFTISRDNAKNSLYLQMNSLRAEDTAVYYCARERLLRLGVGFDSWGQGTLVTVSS VL: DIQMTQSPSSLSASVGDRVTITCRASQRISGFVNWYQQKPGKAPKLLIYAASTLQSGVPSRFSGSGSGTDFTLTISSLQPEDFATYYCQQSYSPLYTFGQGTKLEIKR is ____.
RESULT: 0.00012

QUERY: koff lookup needed for 4D3 (antibody, human IgG1, kappa, L234A L235A, V domains shown) VH: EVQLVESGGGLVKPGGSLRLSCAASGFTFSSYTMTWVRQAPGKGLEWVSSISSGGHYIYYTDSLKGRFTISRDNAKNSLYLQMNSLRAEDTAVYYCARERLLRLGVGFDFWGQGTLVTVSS VL: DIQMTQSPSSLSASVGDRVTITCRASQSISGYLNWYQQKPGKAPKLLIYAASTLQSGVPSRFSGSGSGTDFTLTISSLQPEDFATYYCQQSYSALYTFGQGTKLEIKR , thanks.
RESULT: 0.00013
